DC50 values for the molecules below.
# system_under_test: B-RAF V600E (Homo sapiens, UniProt P15056, V600E)
# Construct: expressed in transfected cells; host or cells: T-Rex 293 cells (Invitrogen #R71007)
# Sequence (P15056 whole entry V600E): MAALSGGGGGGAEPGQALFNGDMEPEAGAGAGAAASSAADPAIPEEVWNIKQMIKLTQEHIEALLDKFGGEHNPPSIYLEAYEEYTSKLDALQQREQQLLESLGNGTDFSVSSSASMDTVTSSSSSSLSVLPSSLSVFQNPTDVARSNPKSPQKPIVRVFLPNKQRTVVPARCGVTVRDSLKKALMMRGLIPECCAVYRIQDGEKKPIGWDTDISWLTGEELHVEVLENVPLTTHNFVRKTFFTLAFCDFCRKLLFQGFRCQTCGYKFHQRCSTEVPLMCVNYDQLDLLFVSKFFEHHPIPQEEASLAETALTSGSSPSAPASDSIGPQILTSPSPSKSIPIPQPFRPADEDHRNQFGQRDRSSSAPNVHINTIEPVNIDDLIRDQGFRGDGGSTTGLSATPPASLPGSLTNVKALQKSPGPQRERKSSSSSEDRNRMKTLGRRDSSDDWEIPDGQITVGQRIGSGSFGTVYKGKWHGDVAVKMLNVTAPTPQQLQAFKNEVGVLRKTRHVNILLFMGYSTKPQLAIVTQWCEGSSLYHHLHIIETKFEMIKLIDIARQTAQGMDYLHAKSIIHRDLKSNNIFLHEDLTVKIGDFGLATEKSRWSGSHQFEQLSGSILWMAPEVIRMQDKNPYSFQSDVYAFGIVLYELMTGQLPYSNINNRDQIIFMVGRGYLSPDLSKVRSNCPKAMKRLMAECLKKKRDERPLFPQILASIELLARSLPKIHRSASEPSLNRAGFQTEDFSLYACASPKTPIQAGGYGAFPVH
# protocol_text: Target protein degradation, assay C: T-Rex 293 cells, HA-BRAF_V600E, 384 well format
# Format: cell-based
# condition_label: Assay C, T-Rex 293 HA-BRAF_V600E cells, 24 hours, Examples 83-269

Fill in the blank: the reported DC50 of `N#Cc1c(NS(=O)(=O)N2CC[C@@H](F)C2)ccc(F)c1Oc1ccc2ncn(-c3ccc(N4CCC(CN5CCC6(CC5)CCN(c5ccc7c(c5)CN([C@H]5CCC(=O)NC5=O)C7=O)CC6)CC4)cc3)c(=O)c2c1` is ____.
50 to 500 nM

Which DC50 value is on record for N#Cc1c(NS(=O)(=O)N2CC[C@@H](F)C2)ccc(F)c1Oc1ccc2ncn(-c3ccc(N4CCC(CN5CC6(CCC(c7ccc8c(c7)CN(C7CCC(=O)NC7=O)C8=O)CC6)C5)C4)cc3)c(=O)c2c1 (single isomer, unassigned) [Example 260] ?
50 to 500 nM

Consider the molecule shown here: `CN(CC1CCN(c2ccc(-n3cnc4ccc(Oc5c(F)ccc(NS(=O)(=O)N6CC[C@@H](F)C6)c5C#N)cc4c3=O)cc2)CC1)[C@H]1C[C@@H](Oc2ccc3c(c2)CN([C@H]2CCC(=O)NC2=O)C3=O)C1` What is its recorded DC50?
50 to 500 nM

I am curious: what DC50 value has been reported for N#Cc1c(NS(=O)(=O)N2CC[C@@H](F)C2)ccc(F)c1Oc1ccc2ncn(-c3cnc(N4CCC(CN5CC6(C5)CN(c5ccc7c(c5)C(=O)N(C5CCC(=O)NC5=O)C7=O)C6)CC4)nc3)c(=O)c2c1 (stereo partly shown) ?
50 to 500 nM

###

# system_under_test: B-RAF G466V (Homo sapiens, UniProt P15056, G466V)
# Construct: expressed in transfected cells; host or cells: T-Rex 293 cells (Invitrogen #R71007)
# Sequence (P15056 whole entry G466V): as the sequence (P15056 whole entry V600E) above, with G466V, E600V counted along it
# protocol_text: Target protein degradation, assay D: T-Rex 293 cells, HA-BRAF_G466V, 384 well format
# Format: cell-based
# condition_label: Assay D, T-Rex 293 HA-BRAF_G466V cells, 24 hours, Examples 83-269
Parameter: DC50. Scope: all listed entries.

For `N#Cc1c(NS(=O)(=O)N2CC[C@@H](F)C2)ccc(F)c1Oc1ccc2ncn(-c3cccc(C4CCN(CC5CCN(c6ccc7c(c6)CN([C@H]6CCC(=O)NC6=O)C7=O)CC5)CC4)c3)c(=O)c2c1` , what is its reported DC50?
1 to 10 nM

More entries:
Quick check: DC50 of `N#Cc1c(NS(=O)(=O)N2CC[C@@H](F)C2)ccc(F)c1Oc1ccc2ncn(-c3ccc(N4CCC(CN5CC(c6ccc7c(c6)CN([C@H]6CCC(=O)NC6=O)C7=O)C5)CC4)cc3)c(=O)c2c1` ?
1 to 10 nM

Look up DC50: `N#Cc1c(NS(=O)(=O)N2CC[C@@H](F)C2)ccc(F)c1Oc1ccc2ncn(-c3ccc(N4CCC5(CC4)CC(OC4CCN(c6ccc7c(c6)CN([C@H]6CCC(=O)NC6=O)C7=O)CC4)C5)cc3)c(=O)c2c1`
1 to 10 nM

Item O=C1CCC(N2Cc3cc(N4CCC(CN5CCN(c6ccc(-n7cnc8ccc(Oc9c(F)ccc(NS(=O)(=O)N%10CC[C@@H](F)C%10)c9F)cc8c7=O)cc6)CC5)CC4)ccc3C2=O)C(=O)N1 (stereo partly drawn) has what recorded DC50?
1 to 10 nM

Reported DC50, compound N#Cc1c(NS(=O)(=O)N2CC[C@@H](F)C2)ccc(F)c1Oc1ccc2ncn(-c3cnc(N4CC5(CN(CC6CCN(c7cccc8c7C(=O)N(C7CCC(=O)NC7=O)C8=O)CC6)C5)C4)nc3)c(=O)c2c1 (stereo partly drawn) : ____
10 to 30 nM

Item Cc1c(N2CCC(CN3CCN(c4ccc(-n5cnc6ccc(Oc7c(F)ccc(NS(=O)(=O)N8CC[C@@H](F)C8)c7C#N)cc6c5=O)cc4)CC3)CC2)ccc2c1CN(C1CCC(=O)NC1=O)C2=O (single isomer, unassigned) [Example 113] has what recorded DC50?
1 to 10 nM

Entry under review: N#Cc1c(NS(=O)(=O)N2CC[C@@H](F)C2)ccc(F)c1Oc1ccc2ncn(-c3ccc(N4CCN(CC5CCN(c6ccc7c(c6)CN(C6CCC(=O)NC6=O)C7=O)CC5)CC4)cn3)c(=O)c2c1 (stereo partly drawn) . Reported DC50?
≤ 1 nM

What does the record list as DC50 for N#Cc1c(NS(=O)(=O)N2CC[C@@H](F)C2)ccc(F)c1Oc1ccc2ncn(-c3cnc(C4(N5CCN(CC6CN(c7ccc8c(c7)CN(C7CCC(=O)NC7=O)C8=O)C6)CC5)CC4)nc3)c(=O)c2c1 (stereo partly drawn) ?
1 to 10 nM

Requested field: DC50. Item: N#Cc1c(NS(=O)(=O)N2CC[C@@H](F)C2)ccc(F)c1Oc1ccc2ncn(-c3ccc(N4CCC5(CC4)CN(c4cccc6c4CN(C4CCC(=O)NC4=O)C6=O)C5)nc3)c(=O)c2c1 (stereo partly drawn)
> 30 nM
